Record: compiled IC50 on Coagulation factor XI (Homo sapiens, UniProt P03951) from multiple reports.
Readout Label: IC50 (µM)

Past entries and their recorded results:
CC(c1cnc(N2CCC2)cn1)n1cc(NC(=O)c2cncc(-c3c(C(F)F)ccc(Cl)c3F)n2)cn1 (single isomer, unassigned)
2.17
NC(=O)[C@H]1CCCN1c1ncc(Cn2cc(NC(=O)c3cncc(-c4c(C(F)F)ccc(Cl)c4F)n3)cn2)cn1
8.93
CC(O)c1ncc(-c2c(C(F)F)ccc(Cl)c2F)nc1C(=O)Nc1cnn(Cc2cnc(N3C[C@H]4C[C@H]4C3=O)c3c2OCO3)c1 (single isomer, unassigned)
0.157
COc1cn(C(CCOC(C)(C)C)C(=O)Nc2ccc(C(=O)O)cc2)c(=O)cc1-c1cc(Cl)ccc1OCC(F)F (racemic)
0.0024

A = COCC[C@@H](C(=O)Nc1ccc(C(N)=O)cc1)n1cc2c(cc1=O)-c1cc(Cl)ccc1C[C@@H](C(F)(F)F)OC2 (single isomer, unassigned)
B = CCC(c1ccc2[nH]ncc2c1)n1cc(C(=O)N2CCC[C@@]3(C2)OC(=O)Nc2ccc(Cl)c(F)c23)cn1 (single isomer, unassigned)
Ask: # argmax over IC50 for candidates A and B Refer to your chosen item by its label in the answer.
Result: B
(B: 1.35 µM, A: 0.0025 µM)

----------
pIC50: −log10 of the molar value.
Record: compiled pIC50 on Coagulation factor XI (Homo sapiens, UniProt P03951) from multiple reports.
Readout Label: pIC50

I = COc1nc(N2CCC2)ncc1Cn1cc(NC(=O)c2cncc(-c3c(C(F)F)ccc(Cl)c3F)n2)cn1
II = Cc1cc(NC(=O)C(CC2CC2)c2ccc(-c3cc(Cl)ccc3-c3cnco3)c[n+]2[O-])ccc1C(=O)O (racemic)
Ask: Which of these two has the smaller recorded pIC50: I or II ? Refer to your chosen item by its label in the answer.
Result: I

1 = O=C(O)c1ccc(NC(=O)C(CC2CC(F)C2)c2ccc(-c3c(C(F)F)ccc(Cl)c3F)c[n+]2[O-])cc1 (single isomer, unassigned)
2 = Cc1ncc(-c2c(C(F)F)ccc(Cl)c2F)nc1C(=O)Nc1cnn(C(C)c2cnc(N3C[C@H]4C[C@H]4C3=O)c3c2OCO3)c1 (single isomer, unassigned)
Ask: # argmax over pIC50 for candidates 1 and 2 Refer to your chosen item by its label in the answer.
Result: 1
(1: 6.31, 2: 5.74)

----------
Record: compiled pIC50 on Coagulation factor XI (Homo sapiens, UniProt P03951) from multiple reports.
pIC50: −log10 of the molar value.
Readout Label: pIC50

O=C(Nc1cnn(Cc2cnc(N3CCC3)c(F)c2)c1)c1cncc(-c2c(C(F)F)ccc(Cl)c2F)n1
5.45

a = CC(C1CC1)C(C(=O)Nc1ccc(C(=O)O)cc1)c1ccc(-c2c(OC(F)F)ccc(Cl)c2F)c[n+]1[O-] (single isomer, unassigned)
b = CC(=O)c1ccc(Cl)cc1-c1cc(=O)n([C@@H](Cc2ccccc2)C(=O)Nc2ccc(C(=O)O)cc2)nc1OCC(F)(F)F
c = Cc1c(C(C)n2cc(NC(=O)c3cncc(-c4c(C(F)F)ccc(Cl)c4F)n3)cn2)cnc(N2C[C@H]3C[C@H]3C2=O)c1F (stereo partly drawn)
Ask: # ascending order, key=pIC50 Please list the labels in the order you were asked to rank them.
Result: c, a, b
(c: 5.33, a: 7.21, b: 7.65)
